assay: Oral bioavailability in Sprague-Dawley rat at 10 mg/kg administered as single dose by LC-MS/MS analysis; assay type: ADME, organism-based; conditions: in vivo
Readout: bioavailability (%)
Entry rule: numbers only, all in %.

## Input Identify measured bioavailability associated with `Cl.Cn1c(-c2cc3c(s2)CNCC3)nc2c(C(N)=O)cc(F)cc21`
## Output 26

----------
assay: Solubility of the compound in pH 7.4 solution; format: physicochemical
Recorded solubility for the following compounds

Cn1c(-c2cc3c(s2)CNCC3)nc2c(C(N)=O)cc(F)cc21; > 50 µM

## Input Identify measured solubility associated with `NC(=O)c1cc(F)cc2[nH]c(-c3cc4c(s3)CNCC4)nc12`
## Output > 50 µM

----------
assay: Intrinsic clearance in human liver microsomes; type: ADME, microsome; details: read-out: CLH
Recorded microsomal CLint for the following compounds
Entry rule: numbers only, all in µL/min/mg.

NC(=O)c1cc(F)cc2[nH]c(-c3cc4c(s3)CNCC4)nc12; 23

Let us move to another entry and its microsomal CLint.
## Input Identify measured microsomal CLint associated with `Cn1c(-c2cc3c(s2)CNCC3)nc2c(C(N)=O)cc(F)cc21`
## Output 28

----------
assay: Volume of distribution at steady state in Sprague-Dawley rat at 5 mg/kg, iv administered as single dose by LC-MS/MS analysis; format: ADME, organism-based; conditions: in vivo, read-out: Vdss
Readout: Vd (L/kg)
Entry rule: numbers only, all in L/kg.

## Input Identify measured Vd associated with `Cl.Cn1c(-c2cc3c(s2)CNCC3)nc2c(C(N)=O)cc(F)cc21`
## Output 13.2

----------
Recorded solubility for the following molecules
test: Solubility of the compound in pH 7 solution; type: physicochemical

NC(=O)c1cc(F)cc2[nH]c(-c3cc4c(s3)CNCC4)nc12; > 50 µM

## Input Identify measured solubility associated with `Cn1c(-c2cc3c(s2)CNCC3)nc2c(C(N)=O)cc(F)cc21`
## Output > 50 µM

----------
test: Clearance in Sprague-Dawley rat at 5 mg/kg, iv administered as single dose by LC-MS/MS analysis; format: ADME, organism-based; conditions: in vivo
Readout: clearance (mL/min/kg)
Entry rule: numbers only, all in mL/min/kg.

## Input Identify measured clearance associated with `Cl.Cn1c(-c2cc3c(s2)CNCC3)nc2c(C(N)=O)cc(F)cc21`
## Output 194

----------
Recorded microsomal CLint for the following compounds
assay: Intrinsic clearance in mouse liver microsomes; type: ADME, microsome; settings: read-out: CLH
Entry rule: numbers only, all in µL/min/mg.

NC(=O)c1cc(F)cc2[nH]c(-c3cc4c(s3)CNCC4)nc12; 123

Let us move to another entry and its microsomal CLint.
## Input Identify measured microsomal CLint associated with `Cn1c(-c2cc3c(s2)CNCC3)nc2c(C(N)=O)cc(F)cc21`
## Output 75

----------
Recorded microsomal CLint for the following molecules
test: Intrinsic clearance in rat liver microsomes; format: ADME, microsome; conditions: read-out: CLH
Entry rule: numbers only, all in µL/min/mg.

NC(=O)c1cc(F)cc2[nH]c(-c3cc4c(s3)CNCC4)nc12; 340

Let us move to another entry and its microsomal CLint.
## Input Identify measured microsomal CLint associated with `Cn1c(-c2cc3c(s2)CNCC3)nc2c(C(N)=O)cc(F)cc21`
## Output 196
